Hello, the source for this data is patent US20240116985A1, in case you need it.

Below, each of the compounds is paired with its reported CHI Log D value.
# protocol_notes: CHI Log D procedure
# Assay type: physicochemical
# experimental_parameters: pH 7.4
outcome_measure: CHI Log D

{"compound": "CC(=O)N1CCC[C@]12CC=CCCCC1(CCCC=CCCCCCC[C@@](C)(C(=O)N[C@@H](Cc3ccccc3)C(=O)N[C@@H](Cc3csc4ccccc34)C(=O)N[C@@H](CCC(N)=O)C(N)=O)NC(=O)[C@H](C)NC(=O)[C@H](Cc3cccc(C(F)(F)F)c3)NC(=O)[C@H](C)NC(=O)[C@H](C)NC(=O)[C@H](CC(=O)O)NC(=O)[C@H](CC(=O)O)NC1=O)NC(=O)[C@H](C)NC(=O)[C@H](CC(=O)O)NC2=O (some centres unmarked) [I-375]", "numeric_value": 2.242}
{"compound": "CC[C@H](C)[C@@H]1NC(=O)[C@H](CC(=O)O)NC(=O)[C@]2(CC=CCCCC3(CCCC=CCCCCCC[C@@](C)(C(=O)N[C@@H](Cc4ccccc4)C(=O)N[C@@H](Cc4csc5ccccc45)C(=O)N[C@@H](CCC(N)=O)C(N)=O)NC(=O)[C@H](CCC(N)=O)NC(=O)[C@H](Cc4ccccc4)NC(=O)[C@H](C)NC(=O)[C@H](C)NC(=O)[C@H](Cc4ccc(C(=O)O)cc4)NC(=O)[C@H](CC(=O)O)NC3=O)NC1=O)CCCN2C(C)=O (some centres unmarked) [I-606]", "numeric_value": 2.412}
{"compound": "CC(=O)N1CCC[C@]12CC=CCCCC1(CCCC=CCCCCCC[C@@](C)(C(=O)N[C@@H](Cc3ccccc3)C(=O)N[C@@H](Cc3c[nH]c4ccccc34)C(=O)N[C@@H](CCC(N)=O)C(N)=O)NC(=O)[C@H](C(C)C)NC(=O)[C@H](Cc3cccc(Cl)c3)NC(=O)[C@H](C)NC(=O)[C@H](C)NC(=O)[C@H](CC(=O)O)NC(=O)[C@H](CC(=O)O)NC1=O)NC(=O)[C@H](C)NC(=O)[C@H](CC(=O)O)NC2=O (some centres unmarked) [I-306]", "numeric_value": 2.03}
{"compound": "CC(=O)N1CCC[C@]12CC=CCCCC1(CCCC=CCCCCCC[C@@](C)(C(=O)N[C@@H](Cc3ccccc3)C(=O)N[C@@H](Cc3csc4ccccc34)C(=O)N[C@@H](Cc3c[nH]cn3)C(N)=O)NC(=O)[C@H](CC(N)=O)NC(=O)[C@H](Cc3ccccc3)NC(=O)[C@H](C)NC(=O)[C@H](C)NC(=O)[C@H](CC(=O)O)NC(=O)[C@H](CC(=O)O)NC1=O)NC(=O)[C@H](CCC(C)C)NC(=O)[C@H](CC(=O)O)NC2=O (some centres unmarked) [I-584]", "numeric_value": 2.635}
{"compound": "CC(=O)N1CCC[C@]12CC=CCCCC1(CCCC=CCCCOC(=O)N3CC[C@@](C(=O)N[C@@H](Cc4ccsc4)C(=O)N[C@@H](Cc4csc5ccccc45)C(=O)N[C@@H](C)C(N)=O)(C3)NC(=O)[C@H](CC(N)=O)NC(=O)[C@H](Cc3ccccc3)NC(=O)[C@H](C)NC(=O)[C@H](C)NC(=O)[C@H](CN(CC(=O)O)CC(F)(F)F)NC(=O)[C@H](CC(=O)O)NC1=O)NC(=O)[C@H](CC(C)(C)C)NC(=O)[C@H](CC(=O)O)NC2=O (some centres unmarked) [I-945]", "numeric_value": 2.104}
